STUDY SYSTEM: SMARCA2-HiBiT HeLa cells (protein which is expressed from the SMARCA2 gene) (Homo sapiens, UniProt P51531)
Construct: protein which is expressed from the SMARCA2 and SMARCA4 genes; host or cells: HeLa (SMARCA2-HiBiT engineered line)
Sequence (P51531 whole entry): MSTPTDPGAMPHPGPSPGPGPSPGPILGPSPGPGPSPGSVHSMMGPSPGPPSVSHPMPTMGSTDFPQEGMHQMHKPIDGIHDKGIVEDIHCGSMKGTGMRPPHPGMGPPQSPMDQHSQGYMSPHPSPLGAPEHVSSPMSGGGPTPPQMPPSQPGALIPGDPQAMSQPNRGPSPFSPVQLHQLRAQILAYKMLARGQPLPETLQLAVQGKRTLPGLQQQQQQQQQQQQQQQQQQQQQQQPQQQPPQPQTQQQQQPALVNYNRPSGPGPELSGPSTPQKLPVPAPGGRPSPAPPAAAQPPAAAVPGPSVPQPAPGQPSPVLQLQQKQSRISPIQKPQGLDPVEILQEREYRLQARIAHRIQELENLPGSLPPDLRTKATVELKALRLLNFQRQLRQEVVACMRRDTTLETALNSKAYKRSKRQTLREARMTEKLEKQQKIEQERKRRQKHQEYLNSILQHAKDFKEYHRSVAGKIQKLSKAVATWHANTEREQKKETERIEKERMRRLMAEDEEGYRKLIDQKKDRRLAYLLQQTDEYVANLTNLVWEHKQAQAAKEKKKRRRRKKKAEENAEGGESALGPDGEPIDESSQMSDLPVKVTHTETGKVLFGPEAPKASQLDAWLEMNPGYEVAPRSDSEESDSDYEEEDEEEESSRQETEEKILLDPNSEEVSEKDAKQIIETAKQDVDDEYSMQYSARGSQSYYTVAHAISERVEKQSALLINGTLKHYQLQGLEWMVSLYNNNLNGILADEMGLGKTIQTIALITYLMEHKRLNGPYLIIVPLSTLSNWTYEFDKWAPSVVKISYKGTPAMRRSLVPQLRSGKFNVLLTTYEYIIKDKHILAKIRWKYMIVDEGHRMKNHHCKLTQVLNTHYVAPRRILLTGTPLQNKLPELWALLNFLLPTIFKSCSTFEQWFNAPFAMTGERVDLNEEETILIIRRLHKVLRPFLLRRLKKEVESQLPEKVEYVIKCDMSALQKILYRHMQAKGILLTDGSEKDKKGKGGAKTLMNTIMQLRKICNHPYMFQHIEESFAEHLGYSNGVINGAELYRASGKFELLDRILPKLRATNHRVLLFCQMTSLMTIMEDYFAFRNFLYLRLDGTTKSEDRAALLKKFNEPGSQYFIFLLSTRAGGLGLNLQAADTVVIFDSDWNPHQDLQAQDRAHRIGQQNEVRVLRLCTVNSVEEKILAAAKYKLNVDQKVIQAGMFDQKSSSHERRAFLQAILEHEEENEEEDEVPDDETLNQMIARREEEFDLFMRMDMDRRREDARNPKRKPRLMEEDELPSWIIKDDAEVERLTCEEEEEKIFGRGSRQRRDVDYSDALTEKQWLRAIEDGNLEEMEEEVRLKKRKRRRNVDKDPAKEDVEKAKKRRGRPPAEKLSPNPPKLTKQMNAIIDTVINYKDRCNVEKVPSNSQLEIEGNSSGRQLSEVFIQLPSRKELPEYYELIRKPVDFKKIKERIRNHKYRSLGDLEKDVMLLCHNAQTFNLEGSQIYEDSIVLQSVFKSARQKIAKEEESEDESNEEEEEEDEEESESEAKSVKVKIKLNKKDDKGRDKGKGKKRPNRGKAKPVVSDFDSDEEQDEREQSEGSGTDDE
PROCEDURE TEXT: SMARCA2 degradation assay (HiBiT-fusion HeLa cell line, 24 h, luminescence)
Assay type: cell-based
SETUP CONDITIONS: @ 1 μM
REPORTED ENDPOINT: SMARCA2 % Degradation @ 1 μM

Use the examples below as a reference point.
- CC1CN(c2ccnc(C#CCNC(=O)c3cc4ncccn4n3)n2)CCCN1c1cc(-c2ccccc2O)nnc1N (stereo not drawn): +++ (+++=>70%)
- C[C@@H]1CCN(c2cc(-c3ccccc3O)nnc2N)CCN1c1ccnc(C#CCNC(=O)c2cccnc2)n1: ++ (++=30-70%)
- Nc1nnc(-c2ccccc2O)cc1N1CCC2(CCN(c3ccnc(C#CCN4CC5CC4C5)n3)CC2)C1: ++ (++=30-70%)
- Nc1nnc(-c2ccccc2O)cc1N1CCCN(c2ccnc(C#CCN3CCCC3)n2)CC1: +++ (+++=>70%)
- C[C@@H]1CCN(c2cc(-c3ccccc3O)nnc2N)CCN1c1ccnc(C#CCN2CC(F)(F)C3(CCC3)C2)n1: ++ (++=30-70%)

Consider the additional compound presented here.
What value of SMARCA2 % Degradation @ 1 μM has been reported for the following compound? `Nc1nnc(-c2ccccc2O)cc1N1CCN(c2ccnc(C#CCNC(=O)c3cccnc3)n2)CC1`
++ (++=30-70%)

---

STUDY SYSTEM: SMARCA4-HiBiT HeLa cells (protein which is expressed from the SMARCA4 gene) (Homo sapiens)
Construct: protein which is expressed from the SMARCA2 and SMARCA4 genes; host or cells: HeLa (SMARCA4-HiBiT engineered line)
Sequence (P51532 whole entry): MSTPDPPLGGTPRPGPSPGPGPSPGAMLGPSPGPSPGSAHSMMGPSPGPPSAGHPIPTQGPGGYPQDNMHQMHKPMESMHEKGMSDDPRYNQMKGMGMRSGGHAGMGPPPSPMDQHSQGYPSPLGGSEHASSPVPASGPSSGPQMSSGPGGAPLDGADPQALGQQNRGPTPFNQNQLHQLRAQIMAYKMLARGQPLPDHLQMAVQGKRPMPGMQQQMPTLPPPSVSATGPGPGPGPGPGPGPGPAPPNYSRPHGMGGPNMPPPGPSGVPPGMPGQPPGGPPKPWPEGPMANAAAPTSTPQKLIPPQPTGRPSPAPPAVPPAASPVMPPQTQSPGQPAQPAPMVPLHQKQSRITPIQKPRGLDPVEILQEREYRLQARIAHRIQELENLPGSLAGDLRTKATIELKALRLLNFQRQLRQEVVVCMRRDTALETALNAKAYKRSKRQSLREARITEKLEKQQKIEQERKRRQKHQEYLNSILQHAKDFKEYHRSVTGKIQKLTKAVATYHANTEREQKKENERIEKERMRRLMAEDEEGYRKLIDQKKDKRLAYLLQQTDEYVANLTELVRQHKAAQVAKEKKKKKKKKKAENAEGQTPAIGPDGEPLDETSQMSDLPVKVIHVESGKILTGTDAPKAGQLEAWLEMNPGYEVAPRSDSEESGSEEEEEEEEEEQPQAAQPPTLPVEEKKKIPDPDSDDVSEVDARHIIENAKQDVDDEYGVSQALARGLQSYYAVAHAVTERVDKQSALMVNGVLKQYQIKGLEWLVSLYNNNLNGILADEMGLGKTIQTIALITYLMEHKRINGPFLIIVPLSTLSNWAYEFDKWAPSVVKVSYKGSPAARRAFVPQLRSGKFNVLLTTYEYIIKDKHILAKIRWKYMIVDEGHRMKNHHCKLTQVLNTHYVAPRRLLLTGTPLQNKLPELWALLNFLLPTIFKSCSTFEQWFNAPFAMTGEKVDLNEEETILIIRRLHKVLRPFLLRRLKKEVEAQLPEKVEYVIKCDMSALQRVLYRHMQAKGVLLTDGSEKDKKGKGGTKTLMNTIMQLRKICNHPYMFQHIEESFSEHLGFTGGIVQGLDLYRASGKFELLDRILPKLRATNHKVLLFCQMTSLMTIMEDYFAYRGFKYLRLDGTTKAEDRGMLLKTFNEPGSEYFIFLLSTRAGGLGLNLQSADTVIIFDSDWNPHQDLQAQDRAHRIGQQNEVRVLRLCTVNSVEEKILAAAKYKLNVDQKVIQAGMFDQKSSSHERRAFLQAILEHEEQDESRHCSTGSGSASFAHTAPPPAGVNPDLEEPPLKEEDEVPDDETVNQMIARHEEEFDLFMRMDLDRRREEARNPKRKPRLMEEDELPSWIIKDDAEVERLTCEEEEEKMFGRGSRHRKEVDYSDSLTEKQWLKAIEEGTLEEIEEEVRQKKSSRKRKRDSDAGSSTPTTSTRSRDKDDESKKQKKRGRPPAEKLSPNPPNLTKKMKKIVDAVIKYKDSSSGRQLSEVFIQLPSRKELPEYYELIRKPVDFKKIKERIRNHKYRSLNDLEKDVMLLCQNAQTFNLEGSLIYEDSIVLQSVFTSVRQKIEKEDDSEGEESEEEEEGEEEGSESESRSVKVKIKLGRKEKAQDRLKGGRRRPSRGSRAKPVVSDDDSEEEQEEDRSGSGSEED
PROCEDURE TEXT: SMARCA4 degradation assay (HiBiT-fusion HeLa cell line, 24 h, luminescence)
Type: cell-based
SETUP CONDITIONS: @ 1 μM
Some molecules, each annotated with its measured inhibition at 1 µM.

Some molecules with known inhibition at 1 µM results, for comparison:
• C[C@@H]1CCN(c2cc(-c3ccccc3O)nnc2N)CCN1c1ccnc(C#CCN2CCC[C@@H]2C)n1 = 30 to 70%
• CNCC#Cc1nccc(N2CCN(c3cc(-c4ccccc4O)nnc3N)CC2)n1 = < 30%
• C[C@@H]1CCN(c2cc(-c3ccccc3O)nnc2N)CCN1c1ccnc(/C=C/CN(C)CCF)n1 = 30 to 70%

# query: inhibition at 1 µM of entry `Nc1nnc(-c2ccccc2O)cc1N1CCCN(c2ccnc(C#CCN3CCCOCC3)n2)CC1`
30 to 70%

Please report the recorded inhibition at 1 µM for `Nc1nnc(-c2ccccc2O)cc1N1CCCN(c2ccnc(C#CCN3CCS(=O)(=O)CC3)n2)CC1` .
30 to 70%

---

Property: DC50; scope: individual compounds
STUDY SYSTEM: SMARCA2-HiBiT HeLa cells (protein which is expressed from the SMARCA2 gene) (Homo sapiens, UniProt P51531)
Construct: protein which is expressed from the SMARCA2 and SMARCA4 genes; host or cells: HeLa (SMARCA2-HiBiT engineered line)
PROCEDURE TEXT: SMARCA2 degradation assay (HiBiT-fusion HeLa cell line, 24 h, luminescence)
Type: cell-based

• CC(C)(C)OC(=O)NCC#Cc1nccc(N2CCCN(c3cc(-c4ccccc4O)nnc3N)CCC2)n1 [Compound P-304] = 50 to 500 nM
• CC(=O)N(C)C/C=C/c1nccc(N2CCN(c3cc(-c4ccccc4O)nnc3N)CC[C@H]2C)n1 [Compound P-153] = 50 to 500 nM
• CC(C)(C)OC(=O)NCC#Cc1nccc(N2CCC(Oc3cc(-c4ccccc4O)nnc3N)CC2)n1 [Compound P-296] = 50 to 500 nM
• Nc1nnc(-c2ccccc2O)cc1N1CCN(c2ccnc(C#CCNC(=O)c3ccn(C(F)F)n3)n2)CC1 [Compound P-10] = 50 to 500 nM
• Nc1nnc(-c2ccccc2O)cc1N1CC[C@@H]2[C@H]1CN2c1ccnc(C#CCNC(=O)c2cc3ncccn3n2)n1 [Compound P-47] = 500 to 5000 nM

Quick check: DC50 of C[C@@H]1CCN(c2cc(-c3ccccc3O)nnc2N)CCN1c1ccnc(C#CCN2CC3(CCC3(F)F)C2)n1 [Compound P-201] ?
50 to 500 nM

// provenance: patent US20260265238A1
